biological target: T1, SPOP28-359 (human SPOP residues 28-359) (human, UniProt O43791 28-359); assay: fluorescence polarisation; competition fluorescence anisotropy: competitor (~0.01 μM to ~2 mM) displaces 40 nM f-Puc from 6 μM SPOP-MATH or SPOP28-359; complete competitive binding fit; 50 mM sodium phosphate pH 6.5, 50 mM NaCl, 5 mM DTT, 1% BSA, 0.01% Triton X-100; conditions: both partners purified
T1 construct: also called oligomeric SPOP; source: E. coli Rosetta BL-21(DE3), purified (Ni-NTA, TEV protease, second Ni-NTA, Superdex 200); not shown: His, N-terminal, cleaved; SUMO, N-terminal, cleaved
T1 sequence (O43791 28-359): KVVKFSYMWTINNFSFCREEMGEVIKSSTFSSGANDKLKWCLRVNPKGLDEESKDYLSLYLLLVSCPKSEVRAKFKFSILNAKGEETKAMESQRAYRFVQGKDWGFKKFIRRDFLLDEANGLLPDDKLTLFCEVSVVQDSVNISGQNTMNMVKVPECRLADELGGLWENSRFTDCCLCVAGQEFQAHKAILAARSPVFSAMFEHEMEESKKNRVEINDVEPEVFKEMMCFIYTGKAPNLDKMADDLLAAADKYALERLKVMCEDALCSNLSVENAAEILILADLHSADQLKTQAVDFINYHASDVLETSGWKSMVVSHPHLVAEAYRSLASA
Please respond with reported pKd for every item in the list.
Note on units: pKd is unitless, being -log10 of a concentration expressed in mol/L.

Exercise: // pKd lookup, key: Pdx1-C (C-terminal intrinsically disordered region of human Pdx1) (domain or fragment, N-terminal Gly-Pro-Gly cloning artefact left after 3C protease; pancreatic and duodenal homeobox 1 (Pdx1), human, amino acids 205-283 by the methods; the exogenous tryptophan may be what is counted as residue 204 (surmise); also called 13C,15N-Pdx1-C; source: E. coli BL-21(DE3), purified (Ni-NTA, 3C protease, second Ni-NTA, heat, anion exchange flow-through); not shown: GST, N-terminal, cleaved; …) GPGWEDKKRGGGTAVGGGGVAEPEQDCAVTSGEELLALPPPPPPGGAVPPAAPVAAREGRLPPGLSASPQPSSVAPRRPQEPR
Key: 5.46

Exercise: Requested read-out: pKd. Entry: ENLACDEVTSTTSSST (puckered protein (Puc), residues 91-106; also called dark Puc peptide; unlabeled Puc peptide; source: synthetic peptide (Tufts University Core Facility, HPLC purified)) [Puc peptide (residues 91-106), unlabeled]
Key: 5.59
